# Lookup of reported composite z-score keyed by entry
subject_of_test: Concanavalin-A (Canavalia ensiformis)
protocol_details: compounds binding concanavalin A lectin – biochemical, small-molecule microarray, Alexa647 label, 635 nm, artefact control for SMM control protein annotation, primary screen (AID 1127);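 note: z combines 667 nm emission intensity with signal-to-noise across three replicate slides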
measurement_parameters: ConA-A647 binding fluorescence, higher = more signal
// return just the number, without any unit appended

What composite z-score value was documented for this compound, O=C1C2C=CC(C(O)C3CCCCC3)N(n3cnnc3)C2C(=O)N1Cc1ccccc1 (centres undefined) ? 0.698

Item: Cc1ccc(S[C@]2(C(=O)NC3CC3)CC(=O)N(C(C)C)[C@@H]2c2ccc(CO)cc2I)cc1 0.0412

Another compound to check: O=C1OCCC=C[C@H]2OC34C=CCN(c5ccc6ccccc6c5)C(=O)[C@H]3N(CCO)C(=O)[C@@H]4C12 (some centres undefined) -0.403

Okay, and NC(=O)N1C(=O)C2C(C1=O)C1C=C(CCCO)C2C(C2CC2)N1Cc1sc2ccccc2c1Cl (centres undefined) ? 1.11

// same read-out, input: C=CCOC(=O)[C@@H]1[C@H]2C(=O)O[C@H](c3ccccc3)[C@H](c3ccccc3)N2[C@H](c2ccc(OCCOC(=O)[C@H]3C[C@H]4C(=O)N[C@@H](CCCCN(C)C)C(=O)N4[C@H]3c3ccc(O)cc3)cc2)[C@@]12C(=O)Nc1ccc(I)cc12 1.15

Try this compound too: CC[C@@H]1C=C(C(=O)O)[C@H](c2ccc(OC)cc2)N1S(=O)(=O)c1ccc(C)cc1 -0.0828

Same read-out for CN(C)CCCNC(=O)[C@@]1(C)c2ccccc2C(=O)N(Cc2ccc(OC(F)(F)F)cc2)[C@H]1c1ccc(CO)cc1 ? -0.451

Moving on to the next compound: O=C1O[C@@H](c2ccccc2)[C@@H](c2ccccc2)N2[C@@H](c3ccccc3OCCO)[C@]3(C(=O)Nc4ccc(C#CCCO)cc43)[C@@H](C(=O)NC[C@H](O)c3ccccc3)[C@H]12 1.12

Same lookup for C=C(C)[C@@H]1CC=C(C(O)C2C=CC3C(=O)N(c4ccccc4)C(=O)C3N2Nc2ccc([N+](=O)[O-])cc2)CC1 (some centres undefined) , please. 0.246

Next compound: CCCC[C@H]1OB(O)C[C@H]2C1=C(COc1ccccc1)C[C@H]1C(=O)C=CC(=O)[C@H]12 0.315

Also COc1ccc(C(O)C2C=CC3C(=O)N(c4ccccc4)C(=O)C3N2Nc2ccc([N+](=O)[O-])cc2)c2ccccc12 (centres undefined) ? 1.22

One more compound: CCCC#C[Si](O[C@H](CC)c1cn(Cc2ccccc2)nn1)(C(C)C)C(C)C 0.572

Further, for COCCOC(=O)N1C(=O)[C@@]2(c3cc(C#CC4(O)CCCCCC4)ccc31)[C@H](c1ccc(O)cc1)N1[C@H](c3ccccc3)[C@H](c3ccccc3)OC(=O)[C@H]1[C@@H]2C(=O)N1CCCCCCC1 ? 0.423

# iterate: [N-]=[N+]=Nc1ccccc1C[C@]1(C(=O)N2CCOCC2)N=C(c2ccc(OCCCO)cc2)O[C@H]1c1ccccc1N=[N+]=[N-] 1.15

###

protocol_details: growth of efflux-deficient E. coli DRC39 – strain DRC39, OD650, 24 h, E. coli filamentation inducers, primary screen (AID 1178);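 note: growth measured as culture turbidity by optical density at 650 nm; test concentration not given here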
measurement_parameters: E. coli DRC39 acrAB, higher = more signal, called active from +8 up or from −8 down
Criterion: z-score meeting or surpassing 0.4. Met: T. Not met: F.

Example entries begin here.
CC(C)c1nc2cc(Br)ccc2c(=O)o1
T
CCCCCC1=C2CNC(CC(C)C)(C(=O)OC)C=C2C(C)C1=O (stereo not given)
F
CC(C)(C)N1CC=CC23O[C@@H]4C=CCCOC(=O)C4[C@H]2C(=O)N(CCCCCCO)[C@@H]3C1=O (stereo not given in full)
F
C[C@@H]1ON(c2ccccc2)[C@H](c2ccccc2)[C@H]1C(=O)O
F
NC(=O)N1C(=O)C2C(C1=O)C1C=C(CCCO)C2C(c2ccc(CN3CCCC3)cc2)N1Cc1cc2c(cc1Br)OCO2 (stereo not given)
F

Say whether CC(C)[Si](C#CCCc1ccccc1)(O[C@H](c1ccccc1)c1cn(Cc2ccccc2)nn1)C(C)C shows z-score of 0.4 or more. F

###

Reported z-score values for a set of molecules
protocol_details: plasmodial surface anion channel blockers, osmotic lysis – cell-based, P. falciparum Indochina, OD700, 18 h, primary screen (AID 1157)
measurement_parameters: P. falciparum Indochina infected erythrocytes, osmotic lysis OD700, 18 h; higher = more signal, called active from +8 up or from −8 down
Calls of active or inactive are those of the source.

Previously resolved entries follow.
COC(=O)[C@H](Cc1ccccc1)N1CC2=CCCC=C[C@@H]2[C@H]1[C@H](O)Cc1ccccc1
0.256 (inactive)
[N-]=[N+]=Nc1ccccc1[C@@H]1OC(c2ccc(OCCCO)cc2)=N[C@]1(CCS(=O)(=O)c1ccccc1)C(=O)NCC(O)CO (stereo not given in full)
2.07 (inactive)
CN(C)CCCNC(=O)[C@@]1(Cc2ccccc2I)c2ccccc2C(=O)N(C2CCCCC2)[C@H]1c1ccc(CO)cc1
-0.456 (inactive)
COCCOC(=O)N1C(=O)[C@@]2(c3ccccc31)[C@H](c1ccc(O)cc1)N1[C@H](c3ccccc3)[C@H](c3ccccc3)OC(=O)[C@H]1[C@@H]2C(=O)N1CCCCCCC1
0.14 (inactive)
O=C1O[C@H](Cc2ccccc2)[C@@H]2[C@H]3C=CCCC=C3CN2[C@H]1Cc1ccc(O)cc1
0.157 (inactive)
CC(C)N1C(=O)c2ccccc2[C@](C)(C(=O)NCC(F)(F)F)[C@@H]1c1ccc(CO)cc1
-0.16 (inactive)
CN1C(=O)C2C(C1=O)C1C=C(c3ccc(CO)cc3)C2C(C2CC2)N1C (stereo not given)
0.184 (inactive)
COc1ccc(C(O)C2C=CC3C(=O)N(c4ccccc4)C(=O)C3N2Nc2ccc(C#N)cc2)cc1OCc1ccccc1 (stereo not given)
1.27 (inactive)

Turning now to a further record.
Consider the molecule shown here: CC(C)NC(=O)[C@@]1(C)c2ccccc2C(=O)N(Cc2ccccc2)[C@H]1c1ccc(CO)cc1 What is its recorded z-score? -0.851 (inactive)

###

protocol_details: plasmodial surface anion channel blockers, osmotic lysis – cell-based, P. falciparum Indochina, OD700, 2 h, primary screen (AID 1155);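 note: lysis reports solute entry through the parasite surface anion channel PSAC; channel blockers reduce lysis of infected cells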
measurement_parameters: P. falciparum Indochina infected erythrocytes, higher = more signal, called active from +8 up or from −8 down
assay_endpoint: z-score
Reply with just the number.

Record excerpt, results attached:
O=C1C[C@]2(c3ccc([N+](=O)[O-])cc3)C(=O)N(C3CC3)c3cc(CO)ccc3[C@H]2N1C1CCCCC1
0.0608
C[N+](C)(C)CCCCNC(=O)[C@H]1C[C@H]2C(=O)N[C@@H](Cc3ccccc3)C(=O)N2[C@H]1c1cccc(OCCO)c1
0.772
O=C1O[C@@H](c2ccccc2)[C@@H](c2ccccc2)N2[C@@H](c3ccccc3OCCO)[C@]3(C(=O)Nc4ccc(C#CCCO)cc43)[C@@H](C(=O)NC[C@H](O)c3ccccc3)[C@H]12
0.913
C=C(CCCC)C(=O)CC[C@@H](OC(=O)c1ccccc1-c1ccccc1C(=O)O)c1ccccc1OCCO
0.148
CC(C)C[C@H]1NC(=O)C([C@@H](C)OCc2ccccc2)NC(=O)[C@@]23C(=O)N[C@@H](Cc4ccccc4)C2[C@H](C)[C@@]2(C)O[C@H]2C3/C=C/C/C=C\CNC1=O (stereo partly drawn)
-0.387
COC(=O)C(CC#Cc1ccc2c(c1)[C@]1(C(=O)N2)[C@H](c2ccc(OCCO)cc2)N2[C@H](c3ccccc3)[C@H](c3ccccc3)OC(=O)[C@H]2[C@@H]1C(=O)N1CCCCCCC1)C(=O)OC
1.59

Moving on to another molecule below.
Param item = C=CC[C@]1(C(=O)NCC(O)CO)COC(c2ccc(OCCCO)cc2)=N1 (stereo partly drawn) ; retrieve measured z-score. 0.203

###

protocol_details: blood-stage malaria parasite viability loss – strain 3D7, DAPI fluorescence, 100 nL, primary screen (AID 1184);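 note: parasites grown inside human red blood cells in medium with human serum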
measurement_parameters: P. falciparum 3D7 growth, 3 d, higher = more signal
assay_endpoint: z-score

CC(C)C(O)C1C=CC2C(=O)NC(=O)C2N1Nc1ccccn1 (centres undefined)
0.17

Could you tell me which z-score is on file for O=C(NCCN1CCOCC1)[C@@H]1c2ccccc2C(=O)N(Cc2ccc(OC(F)(F)F)cc2)[C@H]1c1ccc(CO)cc1 ? -1.05

Input COCCn1c(C(=O)N(C)C)cc2c1C[C@H]1CN(C(=O)c3ccccc3)[C@@](Cc3ccc(OC)cc3)(C(=O)OC)[C@@H]21 -1.45

Okay, and O=C1[C@@H]2[C@@H](CC(COc3ccccc3)=C([C@H](O)CCc3ccccc3)[C@@H]2CO)C(=O)N1Cc1ccccc1 ? -0.0811

###

subject_of_test: Neurogenic locus notch homolog protein 3 (Homo sapiens)
protocol_details: small molecules binding NOTCH3 protein – biochemical, 635/667 nm fluorescence, primary screen (AID 1096)
measurement_parameters: small-molecule microarray, 635 nm fluorescence, higher = more signal
Response key: Criterion met means composite z-score >= 1; Criterion not met means composite z-score < 1.

Past entries and their recorded results:
[N-]=[N+]=Nc1ccccc1[C@H]1OC(c2ccc(OCCCO)cc2)=N[C@@]1(Cc1ccccc1)C(=O)NCC(O)CO (stereo not given in full)
Criterion not met
CC(C)N1C(=O)c2ccccc2[C@@H](C(=O)NCC(F)(F)F)[C@@H]1c1ccc(CO)cc1
Criterion not met
C[C@]1(C(=O)O)c2ccccc2C(=O)N(Cc2cc(F)cc(C(F)(F)F)c2)[C@H]1c1ccc(CO)cc1
Criterion not met
COCCCN1C(=O)[C@@]2(c3ccc([N+](=O)[O-])cc3)CC(=O)N(CC34CC5CC(CC(C5)C3)C4)[C@@H]2c2ccc(CO)cc21
Criterion not met
CCOC(=O)C1=CC[C@@H](c2ccccc2)N(S(=O)(=O)c2ccc(C)cc2)[C@H]1c1ccccc1I
Criterion met
C=CCC(OC(C)=O)[C@@H]1[C@@H](N(Cc2cccc3ccccc23)C(=O)Cc2ccc(OC)cc2)c2cc(OCCCO)ccc2N1C(=O)Cc1ccc2ccccc2c1 (stereo not given in full)
Criterion not met

For this compound, is measured composite z-score 1 or higher? CN(C)CCCNC(=O)[C@@]1(C)c2ccccc2C(=O)N(Cc2ccc(OC(F)(F)F)cc2)[C@H]1c1ccc(CO)cc1 Criterion not met

Again, but for C=CCNC(=O)[C@@H]1[C@H]2C(=O)O[C@H](c3ccccc3)[C@H](c3ccccc3)N2[C@H](c2ccc(OCCO)cc2)[C@@]12C(=O)Nc1ccc(C#CC3(O)CCCCCC3)cc12 Criterion met

Quick one: COCCCNC(=O)[C@@]1(CCC(=O)OC(C)(C)C)COC(c2ccc(OCCCO)cc2)=N1 Criterion not met

Quick one: COc1cc(C(O)C2C=CC3C(=O)N(c4ccccc4)C(=O)C3N2Nc2ccccc2F)cc(OC)c1OC (stereo not given) Criterion met

Would you kindly repeat that for Cc1ccccc1C(O)C1C=CC2C(=O)N(c3ccccc3)C(=O)C2N1Nc1ccccc1 (stereo not given) ? Criterion met
